- System: Enterococcus faecalis
- measurement_protocol: Antibacterial activity against drug-resistant Enterococcus faecalis by microbroth dilution method
- Type: functional
Labelling: MIC reported below 600 µM becomes True; at or above becomes False.

[[record]]
chem_smiles = "Nc1nc(-c2c[nH]c3cc(Cl)c(F)cc3c2=O)cs1"
class = "False"


Data request: Quick check: does Cc1nc(-c2c[nH]c3cc(F)c(F)cc3c2=O)cs1 have MIC under 600 µM?
Data returned: True

Data request: Quick check: does Nc1nc(-c2c[nH]c3c(F)cc(F)cc3c2=O)cs1 have MIC under 600 µM?
Data returned: True

Data request: Quick check: does Cc1nc(-c2c[nH]c3cc(Cl)c(F)cc3c2=O)cs1 have MIC under 600 µM?
Data returned: False

Data request: Quick check: does CC(=O)Cn1cc(-c2csc(N)n2)c(=O)c2cc(F)cc(F)c21 have MIC under 600 µM?
Data returned: True

Data request: Quick check: does CC(=O)Cn1cc(-c2csc(C)n2)c(=O)c2cc(F)ccc21 have MIC under 600 µM?
Data returned: False
